Test system: Hela (human epithelial cervical cancer cells)
method.notes: MTT antiproliferative assay, Hela cells
Format: cell-based
experimental.setup: HeLa, 48 h, read-out: IC50 Hela
pIC50: −log10 of the molar value.

molecule	pIC50
CN1CCC(COc2cnc(-c3cccc(Cn4nc(-c5cccc(C#N)c5)ccc4=O)c3)nc2)CC1 [Tepotinib, reference compound]	4.95

###

Tested on: hepatic carcinoma 97H cells
method.notes: MTT antiproliferative assay, 97H cells
Type: cell-based, human
experimental.setup: Homo sapiens, 97H cells, MTT, 48 h; read-out: IC50 value, 97H cells
pIC50: −log10 of the molar value.
assay.metric: pIC50

compound	numeric.result
CC(c1cccc(-c2ncc(OCC3CCN(C)CC3)cn2)c1)n1cc(-c2cccc(C#N)c2)cnc1=O (stereo not shown) [Compound 31e]	7.59

Just for reference, paper PMC6470795 is where these values come from.
